All figures here come from ChEMBL document CHEMBL3272087.

Measured Activity by item
Test system: Rattus norvegicus
Assay: Estrogenic activity in immature female rat assessed as uterine weight on day 4 at 10 mg/kg, po bid for 3 days (reference value: 13.6 +/- 0.8 mg)
Format: functional
# output: numeric value plus its unit

Per the records, this compound ( `COc1ccc2c(c1)OCC(c1ccccc1)=C2c1ccc(OCCN2CCCC2)cc1` ) has Activity equal to 37.4 mg

Per the records, this compound ( `CCC1(CC)Oc2cc(OC)ccc2C(c2ccc(OCCN3CCCC3)cc2)=C1c1ccccc1.Cl` ) has Activity equal to 35.4 mg

Per the records, this compound ( COc1ccc2c(c1)OC[C@H](c1ccccc1)[C@H]2c1ccc(OCCN2CCCC2)cc1 (relative stereo) ) has Activity equal to 48.3 mg

Read the next record carefully.
Per the records, this compound ( `COc1ccc2c(c1)OC(C)(C)[C@@H](c1ccccc1)[C@H]2c1ccc(OCCN2CCCC2)cc1` ) has Activity equal to 20.5 mg
